target: Peroxisome proliferator-activated receptor alpha (Homo sapiens) (UniProt Q07869); assay: Agonist activity at human PPARalpha ligand binding domain expressed in human HepG2 cells co-transfected with Gal4 by luciferase reporter gene assay relative to Wy-14,643; assay type: cell-based
Sequence (Q07869 whole entry, the tested form may be a part): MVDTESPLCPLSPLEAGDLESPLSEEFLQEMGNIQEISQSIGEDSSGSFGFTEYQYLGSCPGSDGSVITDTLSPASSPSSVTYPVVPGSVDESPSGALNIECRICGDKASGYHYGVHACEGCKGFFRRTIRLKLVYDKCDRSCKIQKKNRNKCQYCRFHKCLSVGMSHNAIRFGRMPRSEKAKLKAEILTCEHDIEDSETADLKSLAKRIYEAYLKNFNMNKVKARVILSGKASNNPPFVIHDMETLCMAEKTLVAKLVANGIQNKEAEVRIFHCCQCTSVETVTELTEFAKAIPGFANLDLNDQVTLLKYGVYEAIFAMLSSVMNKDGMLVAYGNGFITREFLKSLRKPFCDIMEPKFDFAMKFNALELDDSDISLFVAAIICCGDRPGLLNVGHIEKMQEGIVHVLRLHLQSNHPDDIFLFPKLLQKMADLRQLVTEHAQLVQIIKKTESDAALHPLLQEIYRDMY
readout: Efficacy (%)
Output spec: scalar in %, unitless text.

Here is how some compounds turned out for Efficacy.
[[record]]
compound = "O=C(O)C(Cc1ccccc1)Oc1ccc(Cl)cc1Cl (racemic)"
readout = "Efficacy"
number = 50

[[record]]
compound = "O=C(O)[C@@H](Cc1ccc(Oc2ccccc2)cc1)Oc1ccc(Cl)cc1"
readout = "Efficacy"
number = 15


Next compound, please.
Input: Name the reported Efficacy value associated with the compound O=C(O)C(Cc1ccccc1Oc1ccccc1)Oc1ccc(Cl)cc1 (racemic)
Output: 40
